Assay: clinical
Parameters: species or system human patients
Details: human, in vivo, iv, distributive phase T1/2 α
recorded-endpoint: half-life

# input Report half-life, nothing else, for this molecule: `CC(=O)O[C@H]1C(=O)[C@@]2(C)[C@H]([C@H](OC(=O)c3ccccc3)[C@]3(O)C[C@H](OC(=O)[C@H](O)[C@@H](NC(=O)c4ccccc4)c4ccccc4)C(C)=C1C3(C)C)[C@]1(OC(C)=O)CO[C@@H]1C[C@@H]2O`
# output 7 to 20 min

###

Experiment: clinical
Parameters: species or system human patients
Conditions: human, in vivo, iv, T1/2 α
recorded-endpoint: half-life (min)
Answer with a number only, understood to be in min.

# input Report half-life, nothing else, for this compound: `CC(=O)O[C@H]1C(=O)[C@@]2(C)[C@H]([C@H](OC(=O)c3ccccc3)[C@]3(O)C[C@H](OC(=O)[C@H](O)[C@@H](NC(=O)c4ccccc4)c4ccccc4)C(C)=C1C3(C)C)[C@]1(OC(C)=O)CO[C@@H]1C[C@@H]2O`
# output 15
